system: SK-MEL-28 melanoma; assay: NCI tumour cell line growth inhibition, 48 h; in the data active means GI50 below about 0.43 µM; inactive means the rest
Respond with a class label; see true (1) = active, false (0) = inactive

Worked set:
# Compound, Measured target, Discrete label
records = [
    ("NC(=O)c1ccc(Oc2nccc(-c3c(-c4ccc(F)cc4)ncn3C3CCNCC3)n2)cc1", "SK-MEL-28 melanoma", "false (0)"),
    ("CCCCCC(O)C(O)CCC[C@H](O)[C@H]1CC[C@H]([C@H]2CC[C@H]([C@H](O)CCCCCCCCCCCCC3=C[C@H](C)OC3=O)O2)O1 (some centres undefined)", "SK-MEL-28 melanoma", "false (0)"),
    ("COc1ccccc1C1C(C#N)=C(N)Oc2n[nH]c(C)c21 (centres undefined)", "SK-MEL-28 melanoma", "false (0)"),
    ("COc1cc(OC)cc(C2C3=C(COC3=O)Nc3cc(OC)ccc32)c1 (centres undefined)", "SK-MEL-28 melanoma", "true (1)"),
    ("Cc1cc(C)c(C#N)c(Sc2nc(C)c([N+](=O)[O-])c(C)c2C#N)n1", "SK-MEL-28 melanoma", "false (0)"),
]

# fetch the recorded call for CSc1nc2nc3c(nc2c(=O)n1C)C(=O)c1ccccc1C3=O here true (1)

In this assay, the call recorded for CN(C)CCCn1c(=O)c2ccccc2c2cnc3[nH]ccc3c21 was what? false (0)

Could you kindly confirm the outcome this assay logged for c1ccc(OCCC[P+](c2ccccc2)(c2ccccc2)c2ccccc2)cc1 ? false (0)

Dear all, I need the recorded test outcome for CS(=O)(=O)Nc1cccc(-c2ccc3ncnc(Nc4ccc(F)c(Cl)c4)c3c2)c1 , thank you. false (0)

----------
test system: DMS 114 small cell lung; experiment: NCI tumour cell line growth inhibition, 48 h
Measured parameter: TGI (µM)
One number for each entry, in µM.

# Molecule, Unit of measure, TGI
data = [
    ("C=C1C(C)C2C(Cc3ccccc3)NC(=O)C23OC(=O)/C=C\\CC(=O)CCC(C)C/C=C/C3C1O (stereo not given)", "µM", 6.61),
]

Next molecule, please.
Given CCCCCCCC1(c2ccc(N)cc2)CCC(=O)NC1=O (stereo not given) , report its TGI on DMS 114 small cell lung. 85.3

----------
tested on: HOP-62 NSCLC; assay: NCI tumour cell line growth inhibition, 48 h; in the data active = GI50 below about 0.43 µM; inactive = the rest
Bench note: report the call from t for active, f for inactive

# Molecule, Discrete label
measured = [
    ("COc1ccccc1C1C(C#N)=C(N)Oc2n[nH]c(C)c21 (centres undefined)", "f"),
]

Which outcome was assigned to CS(=O)(=O)c1ccc(Nc2nc(N[C@H]3CCCC[C@H]3N)nc3cc[nH]c(=O)c23)cc1 in this test? f

----------
tested on: SK-MEL-5 melanoma; assay: NCI tumour cell line growth inhibition, 48 h
Measured parameter: TGI (µM)
Numbers only, in µM.

# Molecule, Unit of measure, Data value
measured = [
    ("COc1ccc(C(=O)/C=C/c2cc(-c3cc(OC)c(OC)c(OC)c3)n[nH]2)cc1", "µM", 3.24),
]

Below are some molecules; for each one, tell me its TGI.
1. CCCCCCCC1(c2ccc(N)cc2)CCC(=O)NC1=O (centres undefined)
2. CC1(C)CC[C@]2(C(=O)O)CC[C@]3(C)[C@H](C(=O)C=C4[C@@]5(C)C=C(C#N)C(=O)C(C)(C)[C@@H]5CC[C@]43C)[C@@H]2C1
3. COc1cccc2cc(N(C)c3nc(C)nc4c3CCC4)ccc12
4. CC/C(Cc1ccccc1)=C(\c1ccc(OCCN2CCCC2)cc1)c1ccc(OC(=O)NCc2ccccc2)cc1
5. C#Cc1cccc(Nc2nc(Cl)nc3cc(NC(=O)CCl)ccc23)c1

1: 49.6; 2: 1.69; 3: 0.0161; 4: 3.11; 5: 3.36
